# study-system: T1, human NGF (human, UniProt P01138 122-241)
# T1 construct: also called human Nerve Growth Factor; hN
# T1 chain: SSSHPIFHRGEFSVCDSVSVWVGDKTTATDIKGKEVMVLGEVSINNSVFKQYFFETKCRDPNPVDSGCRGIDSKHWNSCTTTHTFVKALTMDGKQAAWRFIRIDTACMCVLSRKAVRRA
# test-description: SPR (Biacore T200), 100 nM mAb on NGF chip, similarity to parent mAb
# Text: The region of an antibody responsible for antigen recognition represents the paratope. A paratope is created by a combination of amino acids in the complementarity determining regions (CDRs) of both the heavy and light chain variable regions. The binding between antibody and antigen is often mediated by side chains of CDR residues with side chains or carbohydrate moieties of the antigen. […]
metric: Percent Similarity Score (KD on hN) (%)

binder	measured-number
can9L12VH_S53A (antibody, V domains shown) VH: EVQLVESGGDLVKPGGSLRLSCVASGFTFSSHGMHWVRQSPGKGLQWVAVINAGGSSTYYTDAVKGRFTISRDNAKNTVYLQMNSLRAEDTAMYYCAKESVGGWEQLVGPHFDYWGQGTLVIVSS VL: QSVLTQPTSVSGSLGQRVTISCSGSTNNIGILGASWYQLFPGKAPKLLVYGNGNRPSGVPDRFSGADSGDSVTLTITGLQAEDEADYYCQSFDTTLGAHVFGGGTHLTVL	100
can9L12VH_L107A (antibody, V domains shown) VH: EVQLVESGGDLVKPGGSLRLSCVASGFTFSSHGMHWVRQSPGKGLQWVAVINSGGSSTYYTDAVKGRFTISRDNAKNTVYLQMNSLRAEDTAMYYCAKESVGGWEQAVGPHFDYWGQGTLVIVSS VL: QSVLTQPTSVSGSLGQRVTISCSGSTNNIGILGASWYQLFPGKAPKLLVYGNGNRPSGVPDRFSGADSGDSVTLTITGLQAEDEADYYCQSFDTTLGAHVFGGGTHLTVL	1.82
can48L2VH_S57A (antibody, V domains shown, CDR scanning mutant of ZTS-842 (48L2)) VH: EVQLVESGGDLVKPGGSLRLSCVASGFTFSTYGINWVRQAPGKGLQWVAYISSGGSATYYADPVKGRFTISRDDAKNMLYLQMNSLRAEDTAIYYCAGSRYTYAYGGGYEFHFWGQGTLVTVSS VL: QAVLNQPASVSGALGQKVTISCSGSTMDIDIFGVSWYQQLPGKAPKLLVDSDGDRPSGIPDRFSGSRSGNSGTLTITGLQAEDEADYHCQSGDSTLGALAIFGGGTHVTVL	100

src = patent US20210221899A1
